target or test system: NLRP3 inflammasome (Homo sapiens, UniProt Q96P20)
Sequence (Q96P20 whole entry): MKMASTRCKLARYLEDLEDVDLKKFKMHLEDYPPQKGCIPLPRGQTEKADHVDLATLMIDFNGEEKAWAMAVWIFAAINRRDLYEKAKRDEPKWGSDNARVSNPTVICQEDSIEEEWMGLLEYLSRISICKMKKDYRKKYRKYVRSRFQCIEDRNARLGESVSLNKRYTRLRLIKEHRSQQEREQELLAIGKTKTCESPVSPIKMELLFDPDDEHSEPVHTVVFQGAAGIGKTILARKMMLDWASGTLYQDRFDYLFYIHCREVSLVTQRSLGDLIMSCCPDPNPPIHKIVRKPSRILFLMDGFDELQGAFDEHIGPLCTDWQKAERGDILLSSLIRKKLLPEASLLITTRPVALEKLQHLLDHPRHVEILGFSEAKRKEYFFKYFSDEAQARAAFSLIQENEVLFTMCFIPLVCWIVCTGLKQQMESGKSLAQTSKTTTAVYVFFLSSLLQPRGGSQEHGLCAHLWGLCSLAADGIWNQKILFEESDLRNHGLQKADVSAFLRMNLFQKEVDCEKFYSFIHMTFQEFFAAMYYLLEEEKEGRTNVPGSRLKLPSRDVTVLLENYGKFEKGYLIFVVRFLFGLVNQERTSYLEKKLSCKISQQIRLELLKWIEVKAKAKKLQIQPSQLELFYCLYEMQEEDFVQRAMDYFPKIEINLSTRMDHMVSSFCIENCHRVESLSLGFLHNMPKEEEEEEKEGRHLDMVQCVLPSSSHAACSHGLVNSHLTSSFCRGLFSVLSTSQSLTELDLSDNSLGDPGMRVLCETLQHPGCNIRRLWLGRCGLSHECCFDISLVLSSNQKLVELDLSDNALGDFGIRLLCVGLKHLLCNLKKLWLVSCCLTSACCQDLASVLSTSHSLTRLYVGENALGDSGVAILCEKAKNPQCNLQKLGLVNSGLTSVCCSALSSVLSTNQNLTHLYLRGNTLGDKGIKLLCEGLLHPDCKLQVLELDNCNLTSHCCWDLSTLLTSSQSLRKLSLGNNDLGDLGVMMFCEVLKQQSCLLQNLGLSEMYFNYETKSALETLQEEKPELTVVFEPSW
measurement description: NLRP3 inflammasome activation in THP1 macrophages (LPS priming, nigericin), IL-1β AlphaLISA
conditions: PMA-differentiated THP1, LPS 20 ng/ml 3 hrs, compound 1 hr, Nigericin 6.7 uM 3 hrs, supernatant
pIC50: −log10 of the molar value.
We begin with a simple list: items and their reported pIC50.
property name: pIC50

INSERT INTO assay_data (structure, target_or_test_system, observed_result) VALUES
  ('COc1ccc(-c2nnc(N[C@@H]3CCCN(C)C3)cc2C)cc1', 'NLRP3 inflammasome (Homo sapiens, UniProt Q96P20)', '6.30 to 7.00'),
  ('Cc1cc(N[C@@H]2CCCN(C)C2)nnc1-c1ccc(F)c(F)c1', 'NLRP3 inflammasome (Homo sapiens, UniProt Q96P20)', '6.30 to 7.00'),
  ('Cc1cc(O[C@@H]2CCCN(C)C2)nnc1-c1ccc(F)cc1', 'NLRP3 inflammasome (Homo sapiens, UniProt Q96P20)', '< 6.00'),
  ('Cc1cc(N[C@@H]2CCCN(C)C2)nnc1-c1cccc(C(F)(F)F)c1', 'NLRP3 inflammasome (Homo sapiens, UniProt Q96P20)', '< 6.00'),
  ('Cc1cc(N(C)[C@@H]2CCN(C)C2)nnc1-c1ccc(F)cc1', 'NLRP3 inflammasome (Homo sapiens, UniProt Q96P20)', '< 6.00'),
  ('Cc1cc(N[C@@H]2CCCN(C)C2)nnc1-c1ccc(C(F)F)cc1', 'NLRP3 inflammasome (Homo sapiens, UniProt Q96P20)', '7.30 to 8.00'),
  ('Cc1cc(N(C)[C@@H]2CCCN(C)C2)nnc1-c1ccc(C(F)(F)F)cc1', 'NLRP3 inflammasome (Homo sapiens, UniProt Q96P20)', '6.30 to 7.00'),
  ('Cc1cc(-c2ccc(C(F)(F)F)cc2C(F)F)nnc1N[C@@H]1CCCN(C)C1', 'NLRP3 inflammasome (Homo sapiens, UniProt Q96P20)', '7.30 to 8.00');
